- Measurement description: Compound solubility in water
- Format: physicochemical
I'd appreciate it if you could supply solubility values for the items below.
API: value field is a number in mg/mL; no unit string.

The compound `COc1nc(C)cn1C(=O)NC1CC1` showed solubility equal to 0.023

The compound `COc1nccn1C(=O)NCCCC(C)C` showed solubility equal to 0.016

The compound `COc1nc(C)cn1C(=O)NCCC(C)C` showed solubility equal to 0.014

The compound `O=C(NCCCC1(C(F)(F)F)CC1)n1ccnc1Oc1ccccc1` showed solubility equal to 0.008

The compound `O=C(NCCC1CC1)n1cnc(-c2ccccc2)c1` showed solubility equal to 0.0019

The compound `O=C(NCCCC1CC1)n1cnc(-c2cccnc2)c1` showed solubility equal to 0.0276

* * *

- Target entity: acid ceramidase (hACR) (Homo sapiens, UniProt Q13510)
- Construct: expressed in transfected cells
- Sequence (Q13510 22-395): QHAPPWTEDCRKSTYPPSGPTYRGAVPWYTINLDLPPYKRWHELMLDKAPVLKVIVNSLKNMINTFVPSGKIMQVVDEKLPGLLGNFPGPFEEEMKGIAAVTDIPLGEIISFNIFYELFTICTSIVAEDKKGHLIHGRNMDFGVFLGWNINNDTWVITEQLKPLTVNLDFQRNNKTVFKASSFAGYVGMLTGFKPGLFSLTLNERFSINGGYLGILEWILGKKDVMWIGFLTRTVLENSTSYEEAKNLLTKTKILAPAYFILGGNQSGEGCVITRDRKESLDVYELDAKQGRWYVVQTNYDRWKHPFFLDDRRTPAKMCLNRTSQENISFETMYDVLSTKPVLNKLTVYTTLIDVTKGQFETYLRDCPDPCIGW
- Measurement description: Acid ceramidase inhibition, biochemical fluorescent assay with cell lysates overexpressing acid ceramidase (substrate Rbm14-12)
- Measurement parameters: cell lysate, 1 hr preincubation at RT, pH 4.5, Rbm14-12 6.3 μM; read-out: IC50 hACR
Result type: IC50

The compound COc1nc(C)cn1C(=O)NCCC1CCCC1(F)F (stereo not drawn) showed IC50 equal to < 200 nM

The compound `O=C(NCCOc1ccccc1)n1cnc(-c2ccccc2)c1` showed IC50 equal to < 200 nM

The compound `CC(C)CCCNC(=O)n1cnc(-c2cccnc2)c1` showed IC50 equal to 200 to 1000 nM

* * *

- Measurement description: Compound solubility in water
- Assay type: physicochemical
I'd appreciate it if you could supply solubility values for the items below.
API: value field is a number in µg/mL; no unit string.

The compound `O=C(NCCC1CC1)n1cnc(-c2cccnc2)c1` showed solubility equal to 23

The compound `Cc1cn(C(=O)NCCOc2ccccc2)c(OCCN2CCN(C)CC2)n1` showed solubility equal to 50

The compound `Cc1cn(C(=O)NCCc2ccccc2)c(OC(C)C)n1` showed solubility equal to 21

The compound `COc1nc(C(C)(C)C)cn1C(=O)NCCCC1CC1` showed solubility equal to 12

The compound O=C(NCCC1CCCC1(F)F)n1cc(Cl)nc1OCCN1CCOCC1 (stereo not shown) showed solubility equal to 33

The compound `CC(C)c1ccc(-c2cn(C(=O)NCCc3ccccc3)cn2)cn1` showed solubility equal to 0.8

The compound `Cc1cn(C(=O)NCCCC(F)(F)F)c(Oc2ccccc2)n1` showed solubility equal to 24

The compound `Cc1cnc(OC(C)C)n1C(=O)NCCc1ccccc1` showed solubility equal to 5

The compound CCC(C)CNC(=O)n1cnc(-c2cccnc2)c1 (stereo not shown) showed solubility equal to 25.6

The compound `COc1nc(C(C)(C)C)cn1C(=O)NC1CCCCC1` showed solubility equal to 8

* * *

- Measurement description: Compound solubility in water
- Format: physicochemical
Result type: solubility (µg/mL)
API: value field is a number in µg/mL; no unit string.

The molecule CC(C)CCNC(=O)n1cnc(-c2cccnc2)c1 [Example 21] showed solubility equal to 21.5

The molecule CN1CCC(Oc2nc(Cl)cn2C(=O)NCCCC(F)(F)F)CC1 [Example 188] showed solubility equal to 36

The molecule COc1nc(C2CCOC2)cn1C(=O)NC1CCCCC1 (centres unmarked) [Example 108] showed solubility equal to 32

The molecule COc1nccn1C(=O)NC1CCCCC1 [Example 120] showed solubility equal to 14

The molecule CC(C)CCNC(=O)n1cnc(-c2ccccn2)c1 [Example 46] showed solubility equal to 13.8

* * *

I'd appreciate it if you could supply solubility values for the items below.
- Measurement description: Compound solubility in water
- Format: physicochemical
API: value field is a number in µg/mL; no unit string.

The compound CN1CCN(c2ncccc2-c2cn(C(=O)NCCCC3(C(F)(F)F)CC3)cn2)CC1 [Example 176] showed solubility equal to 29

The compound COc1nc(C2CCCC2)cn1C(=O)NCCC(C)C [Example 75] showed solubility equal to 13

The compound COc1nc(C2CC2)cn1C(=O)NCCc1ccccc1 [Example 130] showed solubility equal to 12

The compound COc1nc(C2CC2)cn1C(=O)NCCC(C)C [Example 127] showed solubility equal to 23

The compound COc1nc(C)cn1C(=O)NC1CCC(F)(F)CC1 [Example 152] showed solubility equal to 30

The compound COc1nccn1C(=O)NCCCc1ccccc1 [Example 124] showed solubility equal to 20

The compound COc1ccc(-c2cn(C(=O)NC3CCCCC3)cn2)cn1 [Example 62] showed solubility equal to 0.6

The compound CCOc1nc(C(C)(C)C)cn1C(=O)NCCC1CC1 [Example 92] showed solubility equal to 12

The compound COc1nc(C(C)(C)C)cn1C(=O)NCC(C)C [Example 86] showed solubility equal to 15

The compound O=C(NCCOc1ccccc1)n1cnc(-c2cccnc2)c1 [Example 17] showed solubility equal to 2.6

* * *

I'd appreciate it if you could supply solubility values for the items below.
- Measurement description: Compound solubility in water
- Type: physicochemical
API: value field is a number in µg/mL; no unit string.

The compound `COc1nc(-c2ccccc2)cn1C(=O)NC1CCC(F)(F)CC1` showed solubility equal to 1

The compound `COc1nc(C(C)(C)C)cn1C(=O)NC1CCC(F)(F)CC1` showed solubility equal to 12

The compound `COc1nc(-c2ccccc2)cn1C(=O)NCCCc1ccccc1` showed solubility equal to 1

The compound `CC(C)(C)c1cn(C(=O)NCCc2ccccc2)cn1` showed solubility equal to 5.2

The compound `O=C(NC1CCCCC1)n1cnc(-c2cccnc2)c1` showed solubility equal to 23

The compound `CN1CCN(CCOc2nc(-c3ccccc3)cn2C(=O)NCC#Cc2ccccc2)CC1` showed solubility equal to 7

The compound `COc1nc(-c2coc(C(C)(C)C)n2)cn1C(=O)NCCC1CC1` showed solubility equal to 6

The compound `COc1nc(C)cn1C(=O)NCCCC1(C(F)(F)F)CC1` showed solubility equal to 28

The compound `CN1CCN(C2CCN(c3ncccc3-c3cn(C(=O)NCCC4CC4)cn3)CC2)CC1` showed solubility equal to 41.5

The compound `CCOc1nc(-c2ccccn2)cn1C(=O)NCCC1CC1` showed solubility equal to 24.1

The compound COc1nc(C2CCOC2)cn1C(=O)NC1CC1 (stereo not shown) showed solubility equal to 15

The compound `Cc1cn(C(=O)NC2CCC(F)(F)CC2)c(Oc2cccc(C3CN(C)C3)c2)n1` showed solubility equal to 17

The compound `COc1nc(-c2ccccc2)cn1C(=O)NCCc1ccccc1` showed solubility equal to 0.1

The compound `CC(C)CCCNC(=O)n1cnc(-c2cccnc2)c1` showed solubility equal to 18.9

The compound `COc1nc(C)cn1C(=O)NCCCOC(F)(F)F` showed solubility equal to 30

The compound `Cc1cn(C(=O)NCCCC(F)(F)F)c(OCCN2CCN(C)CC2)n1` showed solubility equal to 38

The compound `COc1nc(C(C)(C)C)cn1C(=O)NCC#CC(C)C` showed solubility equal to 5

The compound `O=C(NCCc1ccccc1)n1cnc(-c2ccncc2)c1` showed solubility equal to 23.9

The compound COc1nc(C2CCOC2)cn1C(=O)NCCCc1ccccc1 (stereo not shown) showed solubility equal to 17

The compound `CC(C)(C)c1cn(C(=O)NCCc2cccnc2)cn1` showed solubility equal to 0.2

The compound `COc1nc(-c2cccnc2N2CCN(C)CC2)cn1C(=O)NCC#CC(C)C` showed solubility equal to 45

The compound `CC(C)CCNC(=O)n1cnc(-c2ccccc2)c1` showed solubility equal to 3.1

The compound COc1nc(C)cn1C(=O)NCCC1CCC(F)(F)C1 (stereo not shown) showed solubility equal to 30

The compound `COc1nc(C)cn1C(=O)NCCCOc1ccccc1` showed solubility equal to 26

The compound `COc1nc(C2CCC(F)(F)CC2)cn1C(=O)NCCC(C)C` showed solubility equal to 15

The compound `O=C(NCCC1CC1)n1cc(-c2cccnc2)nc1OC1CC1` showed solubility equal to 25

The compound `CC(C)Oc1nc(Cl)cn1C(=O)NCCCC(F)(F)F` showed solubility equal to 29

The compound `COc1nc(C(C)(C)C)cn1C(=O)NCCCc1ccccc1` showed solubility equal to 10

The compound `CC(C)CCNC(=O)n1cc(C(C)(C)C)nc1Oc1ccccc1F` showed solubility equal to 0.4

The compound `CSc1nccn1C(=O)NCCC(C)C` showed solubility equal to 10

The compound `COc1nc(C(C)(C)C)cn1C(=O)NCCCC(F)(F)F` showed solubility equal to 22

The compound `COc1nc(-c2cccnc2N2CCN(C)CC2)cn1C(=O)NCCCC1(C(F)(F)F)CC1` showed solubility equal to 35

The compound `CCOc1nc(-c2ccc(OC)nc2)cn1C(=O)NCCC1CC1` showed solubility equal to 2

The compound `COc1nc(C)cn1C(=O)NCCCCc1ccccc1` showed solubility equal to 23

The compound `COc1nccn1C(=O)NCCCC1(C(F)(F)F)CC1` showed solubility equal to 29

The compound `CN1CCC(c2cn(C(=O)NCCC#Cc3ccccc3)cn2)CC1` showed solubility equal to 31

The compound `COc1nc(C)cn1C(=O)NCCCc1ccccc1` showed solubility equal to 24

The compound `CC(C)CNC(=O)n1cc(C(C)(C)C)nc1OC(C)C` showed solubility equal to 7

The compound COc1nc(C(C)(C)C)cn1C(=O)NC(C)CC(C)C (stereo not shown) showed solubility equal to 15.1

The compound `CCOc1nc(-c2cccnc2)cn1C(=O)NCCC(C)C` showed solubility equal to 8
